- Test system: P-gp
- experiment: In vivo P-gp inhibition study: plasma and brain pharmacokinetics of i.v. quinidine in mice with and without inhibitor pre-treatment
- measurement setup: male, C57, mouse, brain, iv, 5 mg/kg
experimental readout: AUC(0-inf) (ng·h/mL)

cpd smiles: C=C[C@H]1C[N@@]2CC[C@H]1C[C@@H]2[C@@H](O)c1ccnc2ccc(OC)cc12
readout number: 251

---

- Tested on: P-gp
- experiment: In vivo P-gp inhibition study: plasma and brain pharmacokinetics of i.v. quinidine in mice with and without inhibitor pre-treatment
- measurement setup: male, C57, mouse, plasma, iv, 5 mg/kg

cpd smiles: C=C[C@H]1C[N@@]2CC[C@H]1C[C@@H]2[C@@H](O)c1ccnc2ccc(OC)cc12
assay system: P-gp
unit abbrev: ng/mL
Cmax: 209
